The compounds listed here are annotated with their relative viability.
- System: NCI-H596
- test-protocol: relative viability (nuclei count vs DMSO), 5 days (fraction); higher = more cells survive
- run-parameters: first compound 0.3162 µM
# output: bare number, no unit

Worked set:
{"columns": ["compound", "experimental-endpoint", "reading"],
 "data": [
  ["CC(C)Oc1cc(Nc2nc(N[C@@H](C)c3ccc(F)cn3)ncc2Cl)n[nH]1 [AZ23] + CS(=O)(=O)CCNCc1ccc(-c2ccc3ncnc(Nc4ccc(OCc5cccc(F)c5)c(Cl)c4)c3c2)o1 [Lapatinib] (partner 2 µM)", "relative viability", 1.03],
  ["CC(C)Oc1cc(Nc2nc(N[C@@H](C)c3ccc(F)cn3)ncc2Cl)n[nH]1 [AZ23] + Cc1cc(Nc2cc(N3CCN(C)CC3)nc(Sc3ccc(NC(=O)C4CC4)cc3)n2)n[nH]1 [Tozasertib] (partner 0.1 µM)", "relative viability", 0.827],
  ["CC(C)Oc1cc(Nc2nc(N[C@@H](C)c3ccc(F)cn3)ncc2Cl)n[nH]1 [AZ23] + C[C@@H](Oc1cc(-c2cnn(C3CCNCC3)c2)cnc1N)c1c(Cl)ccc(F)c1Cl [Crizotinib] (partner 1 µM)", "relative viability", 0.896]
]}

Let's switch to this compound now.
Can you share its relative viability? I mean this compound: CC(C)Oc1cc(Nc2nc(N[C@@H](C)c3ccc(F)cn3)ncc2Cl)n[nH]1 [AZ23] + O=C(CCCCCCC(=O)Nc1ccccc1)NO [Vorinostat] (partner 1 µM) 0.582
